# System: RPMI-8226 leukemia
# assay.method.text: NCI-60 one-dose screen, 48 h (100 = growth as untreated, 0 = no growth, -100 = all killed)
# run.conditions: 10 µM
About 83,000 compounds went through this panel and 20% of them were active in at least one assay; those are over-represented in the sample as a whole.
Label yes when growth >= 40%; otherwise no.

query: Has Cc1cccc2c(Nc3ccc(NS(C)(=O)=O)cc3)c3ccc([N+](=O)[O-])cc3nc12 a recorded growth greater than or equal to 40%?
result: no

query: Identify whether the reported growth of the following molecule is 40% or greater: CS(=O)(=O)Nc1ccc(Nc2c3ccccc3nc3cc(Cl)ccc23)cc1
result: yes

query: Item COc1ccc(C(=O)/C=C/c2cc(-c3ccc4c(c3)OCO4)n[nH]2)cc1OC with growth of 40% or above?
result: no

query: Assess whether reported growth for Cc1ccc(C)c2c1sc1nc3n[nH]c(N)c3c(=N)n12 sits at 40% or higher.
result: yes

query: Decide: is the reported value of growth for CN(C)c1ccc2cc(-c3cc4c(oc3=O)-c3ccccc3OC4O)c(=O)oc2c1 (stereo unspecified) equal to or greater than 40%?
result: no

query: Reported growth at or above 40%? COCCOC(=O)NC(=O)Nc1ccc(C(=O)c2ccc(Cl)cc2)cc1
result: no

query: Tell me whether growth is at least 40% here: O=NN(CC(=O)N/N=C/C=C\c1ccccc1)CC(=O)N/N=C/C=C/c1ccccc1
result: yes

query: // inclusive: growth at least 40%? input: CCCCCCOc1ccc(/C=C/C(=O)c2ccc(B(O)O)cc2)cc1
result: yes

query: Tell me whether growth is at least 40% here: C=CCN1C(=O)/C(=C\c2ccc3c(c2)CCC3)SC1=S
result: yes

query: Answer whether growth of CCCCCCCCCCN=C(c1ccc(N(C)C)cc1)c1ccc(N(C)C)cc1 is greater than or equal to 40%.
result: no

query: Does COc1ccc2oc(=O)cc(C(c3ccc[nH]3)c3ccc[nH]3)c2c1 have a reported growth of at least 40%?
result: no

query: Determine whether this molecule has growth no lower than 40%: CCOC(=O)Cn1nnc(-c2ccc(OCc3ccccc3F)cc2)n1
result: yes

query: Is growth at least 40%? Consider CCCCCCCCCCCCCC[n+]1ccc(C)cc1
result: no

query: Is growth for NC(=O)C1CCCN(Cc2c[nH]c3ccccc23)C1 (stereo unspecified) at or above 40%?
result: yes

query: Check if growth >= 40% (inclusive). Item: COc1cccc(C(=O)N(c2ccc(F)c(F)c2)C(C(=O)NC(C)(C)C)c2cc3c(C)cc(C)cc3nc2Cl)c1 (stereo unspecified)
result: yes

query: Assess whether reported growth for CCCCCCN=C(N)CCCCCCCCCCC(N)=NCCCCCC sits at 40% or higher.
result: no

query: Reported growth at or above 40%? Nc1ncc(-c2ccc(C(F)(F)F)cc2)c(NC2CCCCCC2)n1
result: no

query: Confirm if growth reported for the molecule COc1ccc2oc(=O)cc(C3c4ccc([nH]4)C(c4cc(=O)oc5ccc(OC)cc45)c4ccc([nH]4)C(c4cc(=O)oc5ccc(OC)cc45)c4ccc([nH]4)C(c4cc(=O)oc5ccc(OC)cc45)c4ccc3[nH]4)c2c1 (stereo unspecified) is 40% or above.
result: no

query: Decide: is the reported value of growth for C(=C\c1nc2ccccc2s1)/c1ccc(N2CCOCC2)s1 equal to or greater than 40%?
result: yes

query: Item COc1cc(C)c2sc3ccccc3c(=O)c2c1NCCN(C)C with growth of 40% or above?
result: no
